Cited source for all entries: patent US20220235043A1

experimentDescription: GI Exposure PK in Mice
Type: in vivo
conditionsUsed: mouse; male BalbC mice, oral dose of 5 mg/kg, Ileum
valueType: AUC (ng·h/mL)
Numbers only, in ng·h/mL.

Task: Fill blank: measured AUC of the compound Cc1nnc(-c2cnc3[nH]ccc3c2N[C@H]2C[C@@H](NS(=O)(=O)c3cccc(C#N)c3)C2)s1 is ____.
Output: 24500

* * *

subjectOfTest: JAK1 (Homo sapiens, UniProt P23458)
Sequence (P23458 whole entry): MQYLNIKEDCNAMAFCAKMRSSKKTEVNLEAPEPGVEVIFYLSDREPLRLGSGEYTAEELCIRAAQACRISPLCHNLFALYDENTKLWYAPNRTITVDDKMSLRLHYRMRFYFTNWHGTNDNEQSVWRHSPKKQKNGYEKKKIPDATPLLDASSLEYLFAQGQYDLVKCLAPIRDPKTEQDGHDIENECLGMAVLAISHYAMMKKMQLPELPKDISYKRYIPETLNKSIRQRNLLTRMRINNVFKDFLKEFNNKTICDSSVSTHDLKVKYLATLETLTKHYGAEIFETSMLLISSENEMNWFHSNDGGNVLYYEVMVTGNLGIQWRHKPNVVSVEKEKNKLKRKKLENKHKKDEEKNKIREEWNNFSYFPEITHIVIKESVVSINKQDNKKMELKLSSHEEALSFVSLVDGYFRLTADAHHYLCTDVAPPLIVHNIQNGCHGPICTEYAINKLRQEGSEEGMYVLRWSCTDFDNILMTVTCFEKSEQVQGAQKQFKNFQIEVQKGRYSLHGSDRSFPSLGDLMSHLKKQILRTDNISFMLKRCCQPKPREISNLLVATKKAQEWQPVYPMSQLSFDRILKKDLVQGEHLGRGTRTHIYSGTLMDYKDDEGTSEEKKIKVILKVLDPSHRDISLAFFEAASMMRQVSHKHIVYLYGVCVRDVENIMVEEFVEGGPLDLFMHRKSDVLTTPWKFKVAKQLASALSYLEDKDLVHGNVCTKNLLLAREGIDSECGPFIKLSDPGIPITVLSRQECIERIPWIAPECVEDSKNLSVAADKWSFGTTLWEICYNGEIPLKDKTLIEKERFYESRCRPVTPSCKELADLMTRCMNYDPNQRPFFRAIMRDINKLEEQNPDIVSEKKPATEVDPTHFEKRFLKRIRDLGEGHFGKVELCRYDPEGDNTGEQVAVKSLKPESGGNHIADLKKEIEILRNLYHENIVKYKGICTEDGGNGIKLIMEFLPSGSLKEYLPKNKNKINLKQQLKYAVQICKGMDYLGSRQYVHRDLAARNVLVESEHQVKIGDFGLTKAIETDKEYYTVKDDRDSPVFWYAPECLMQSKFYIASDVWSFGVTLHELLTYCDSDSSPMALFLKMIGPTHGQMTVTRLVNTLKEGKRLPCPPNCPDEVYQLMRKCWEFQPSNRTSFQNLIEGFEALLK
pIC50: −log10 of the molar value.
Would you mind telling me the reported pIC50 of each entry?

# count of solved cases: 5
- N#Cc1cccc(S(=O)(=O)N[C@H]2C[C@@H](Nc3c(-c4ccncn4)cnc4[nH]ccc34)C2)c1 [Example 64]: ≥ 8.00
- N#Cc1cccc(S(=O)(=O)N[C@H]2C[C@@H](Nc3c(-c4nncs4)cnc4[nH]ccc34)C2)c1 [Example 78]: ≥ 8.00
- CCOC(=O)c1cnc2[nH]ccc2c1N[C@H]1C[C@H](NS(=O)(=O)c2cc(C#N)ccn2)C1 [Example 4]: 7.00 to 8.00
- N#Cc1cccc(S(=O)(=O)N[C@H]2C[C@@H](Nc3c(-c4nnco4)cnc4[nH]ccc34)C2)c1 [Example 79]: ≥ 8.00
- CNC(=O)c1ccnc(-c2cnc3[nH]ccc3c2N[C@H]2C[C@@H](NS(=O)(=O)c3cc(C#N)ccn3)C2)c1 [Example 67]: ≥ 8.00

Hi there! I need pIC50 for each item below, if you can.
1. Cc1nnc(-c2cnc3[nH]ccc3c2N[C@H]2C[C@@H](NS(=O)(=O)CCCC#N)C2)s1 [Example 77]
2. N#Cc1ccnc(S(=O)(=O)N[C@H]2C[C@H](Nc3c(-c4ccncn4)cnc4[nH]ccc34)C2)c1 [Example 63]

Output:
≥ 8.00
≥ 8.00

Hi there! I need pIC50 for each item below, if you can.
1. CNC(=O)c1ccnc(-c2cnc3[nH]ccc3c2N[C@H]2C[C@@H](NS(=O)(=O)c3cccc(C#N)c3)C2)c1 [Example 66]
2. Cc1nccc(-c2cnc3[nH]ccc3c2N[C@H]2C[C@@H](NS(=O)(=O)c3cc(C#N)ccn3)C2)n1 [Example 85]

Output:
["≥ 8.00", "≥ 8.00"]
